# System: SK-BR-3, human breast cancer cell strain
# METHOD_SUMMARY: IC50 test on tumor cells (MTT), SK-BR-3
# Assay type: cell-based
# COND: Homo sapiens; SK-BR-3, MTT, 48 h; read-out: Half Inhibitory concentrations (IC50) on human tumor cell strain growth
pIC50: −log10 of the molar value.
OBSERVABLE: pIC50

Completed entries (count: 2):
- COMPOUND: "CCC12CCCNC3=C(C(=O)C(=O)C=C3C3CC4(CC)CCCN5CCc6c(n3c3ccccc63)C54)C3=C1N(CCC2)CC3 (stereo not shown)"
  TESTED_TARGET: "SK-BR-3, human breast cancer cell strain"
  pIC50: 4.81
- COMPOUND: "CCC12CCCN3CCc4c(n(c5ccccc45)C(c4ccc(O)c5c4NC4CCC6(CC)CCCN7CCC54C76)C1)C32 (stereo not shown)"
  TESTED_TARGET: "SK-BR-3, human breast cancer cell strain"
  pIC50: 5.44

I: CCC12CCCN3CCc4c(n(c5ccccc45)C(c4ccc(O)c5c4N=C4CCC6(CC)CCCN7CCC45C76)C1)C32 (stereo not shown)
II: CCC12CCCN3CCc4c(n(c5ccccc45)C(c4cc5c(cc4O)N4CCCC6(CC)CCCN7CCC5(OC)C746)C1)C32 (stereo not shown)
[in] Response body: label of entry with the larger pIC50; valid values I , II . Selection: enter the item's label.
[out] II

----------
# METHOD_SUMMARY: Solubility (qualitative description)
# Format: physicochemical
# COND: acetone
OBSERVABLE: solubility in acetone

- COMPOUND: "CCC12CCCN3CCc4c(n(c5ccccc45)C(c4ccc(O)c5c4NC4CCC6(CC)CCCN7CCC54C76)C1)C32 (stereo not shown)"
  OBSERVABLE: "solubility in acetone"
  RESULT_VALUE: "slightly soluble"
- COMPOUND: "CCC12CCCN3CCc4c(n(c5ccccc45)C(c4ccc(O)c5c4N=C4CCC6(CC)CCCN7CCC45C76)C1)C32 (stereo not shown)"
  OBSERVABLE: "solubility in acetone"
  RESULT_VALUE: "slightly soluble"
- COMPOUND: "CCC12CCCN3CCc4c(n(c5ccccc45)C(c4cc5c(cc4O)N4CCCC6(CC)CCCN7CCC5(OC)C746)C1)C32 (stereo not shown)"
  OBSERVABLE: "solubility in acetone"
  RESULT_VALUE: "slightly soluble"
